# TESTED SYSTEM: imidazoline I2 sites
# EXPERIMENT NOTES: Competition binding of 5 nM [3H]idazoxan to rat liver membranes
# EXPERIMENTAL CONTEXT: 5 nM [3H]idazoxan (Kd 14 ± 2 nM), mean ± SD, compounds 4 and 8 mean ± 95% confidence intervals
REPORTED METRIC: Ki (µM)
Answer in µM, number only, no unit symbol.

N=C(N)c1ccccc1 | 0.58

# ---- query compound ----
Ki measured on c1cc(C2=NCCN2)ccc1OCCCCCOc1ccc(C2=NCCN2)cc1 = 0.0043

* * *

# Test system: Pneumocystis carinii
# EXPERIMENT NOTES: Anti-Pneumocystis carinii activity, P. carinii pneumonia in the rat
# Assay type: in vivo
# EXPERIMENTAL CONTEXT: rat; compared with pentamidine
REPORTED METRIC: anti-P. carinii activity (in words)

N=C(N)c1ccc(OCCCCOc2ccc(C(=N)N)cc2)cc1 | greater than pentamidine
N=C(N)c1ccc(O)cc1 [Compound 11, 4-hydroxybenzamidine] | no activity at all
N=C(N)c1ccc(OCCCCCO)cc1 | no activity at all
N=C(N)c1ccc(OCCCCCCOc2ccc(C(=N)N)cc2)cc1 | greater than pentamidine

Reported anti-P. carinii activity (in words) ( c1cc(C2=NCCN2)ccc1OCCCCCOc1ccc(C2=NCCN2)cc1 ) = greater than pentamidine

* * *

Overview of recorded Ki for various compounds
# TESTED SYSTEM: imidazoline I2 sites
# EXPERIMENT NOTES: Competition binding of 5 nM [3H]idazoxan to rat liver membranes
# EXPERIMENTAL CONTEXT: 5 nM [3H]idazoxan (Kd 14 ± 2 nM), mean ± SD, compounds 4 and 8 mean ± 95% confidence intervals
Could you give me the number in nM? Just the number is fine.

N=C(N)c1ccc(OCCCCCOc2ccc([N+](=O)[O-])cc2)cc1 | 62
N=C(N)c1ccc(OCCCCCOc2ccc(C(=N)N)cc2)cc1 [Compound 1, pentamidine, reference compound] | 1.4
c1ccc(C2CC2)c(OCC2=NCCN2)c1 [Cirazoline, cirazoline, reference compound] | 3
COc1cc(C2=NCCN2)ccc1OCCCOc1ccc(C2=NCCN2)cc1OC | 50.1
COc1ccc(C(=N)N)cc1 | 228
N=C(N)c1ccc(OCCCCCCOc2ccc(C(=N)N)cc2)cc1 | 3.2

Here is another compound to look at.
get_value(item= N=C(N)c1ccc(OCCCCCO)cc1 , readout=Ki) returns 319

* * *

# System: imidazoline I2 sites
# EXPERIMENT NOTES: Competition binding of 5 nM [3H]idazoxan to rat liver membranes
# EXPERIMENTAL CONTEXT: inhibition of [3H]idazoxan binding
// reported Hill Slope for each item listed

N=C(N)c1ccc(OCCCCCCOc2ccc(C(=N)N)cc2)cc1 [Compound 2] | −1.2
N=C(N)c1ccc(OCCCCCOc2ccc(C(=N)N)cc2)cc1 [Compound 1, pentamidine, reference compound] | −0.8
c1cc(C2=NCCN2)ccc1OCCCCCOc1ccc(C2=NCCN2)cc1 [Compound 3] | −0.8

What the record says about N=C(N)c1ccc(O)cc1 [Compound 11, 4-hydroxybenzamidine] : Hill Slope is −0.3

The reported Hill Slope of the molecule COc1cc(C(=N)N)ccc1OCCCOc1ccc(C(=N)N)cc1OC [Compound 6] was −0.9

The molecule listed as COc1cc(C2=NCCN2)ccc1OCCCOc1ccc(C2=NCCN2)cc1OC [Compound 5] has a reported Hill Slope of −0.9

Entry N=C(N)c1ccc(OCCCOc2ccc(C(=N)N)cc2)cc1 [Compound 7] , Hill Slope reported as −0.8

Looking up N=C(N)c1ccc(OCCCCCO)cc1 [Compound 9] , I see its Hill Slope listed as −0.8

Entry N=C(N)c1ccc(OCCCCCOc2ccc([N+](=O)[O-])cc2)cc1 [Compound 8] — recorded Hill Slope = −0.8

Recorded Hill Slope (molecule N=C(N)c1ccccc1 [Compound 12, benzamidine] ): −0.8

Per the records, this molecule ( COc1ccc(C(=N)N)cc1 [Compound 10, 4-methoxybenzamidine] ) has Hill Slope equal to −0.8

Short answer for N=C(N)c1ccc(OCCCCOc2ccc(C(=N)N)cc2)cc1 [Compound 4] : Hill Slope was −0.8
